Overview of recorded α-Amylase Inhibition % for various compounds
# tgt: α-amylase (EC.3.2.1.1) (Homo sapiens)
# Sequence (P04746 16-511): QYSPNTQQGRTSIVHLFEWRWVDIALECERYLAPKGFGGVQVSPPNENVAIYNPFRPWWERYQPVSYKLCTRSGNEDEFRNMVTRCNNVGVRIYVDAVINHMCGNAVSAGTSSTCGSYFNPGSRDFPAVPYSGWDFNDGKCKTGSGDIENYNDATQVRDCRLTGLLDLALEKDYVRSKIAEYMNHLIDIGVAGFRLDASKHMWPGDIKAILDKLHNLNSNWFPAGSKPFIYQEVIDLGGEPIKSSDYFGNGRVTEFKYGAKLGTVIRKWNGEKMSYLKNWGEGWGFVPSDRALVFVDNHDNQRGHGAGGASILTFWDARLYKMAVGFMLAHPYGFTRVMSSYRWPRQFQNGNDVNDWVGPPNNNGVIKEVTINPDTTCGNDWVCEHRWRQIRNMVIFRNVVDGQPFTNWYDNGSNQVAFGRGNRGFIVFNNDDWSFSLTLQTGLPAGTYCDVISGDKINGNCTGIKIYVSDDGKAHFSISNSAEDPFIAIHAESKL
# assay-summary: In vitro α-amylase inhibition (starch/DNS, 540 nm)
# Type: biochemical
# measurement-conditions: 6 µg
Form entry: value (%) — number only.

- compound: "COC(=O)C=Cc1ccccc1OC(=O)c1cccnc1 [Compound 2g]"
  tgt: "α-amylase (EC.3.2.1.1) (Homo sapiens)"
  measured-property: "α-Amylase Inhibition %"
  result: 73.06
- compound: "COC(=O)C=Cc1cccc(OC(=O)c2cccnc2)c1 [Compound 2f]"
  tgt: "α-amylase (EC.3.2.1.1) (Homo sapiens)"
  measured-property: "α-Amylase Inhibition %"
  result: 56.22
- compound: "CCOc1ccc2nc(NC(=O)c3cccnc3)sc2c1 [Compound 2k]"
  tgt: "α-amylase (EC.3.2.1.1) (Homo sapiens)"
  measured-property: "α-Amylase Inhibition %"
  result: 69.98

Ask | Can you share its α-Amylase Inhibition %? I mean this compound: O=C(NCc1ccc2c(c1)OCO2)c1cccnc1 [Compound 2e]
Reply | 74.08

Ask | // returns reported α-Amylase Inhibition % for input C[C@H]1O[C@H](O[C@H]2[C@H](O)[C@@H](O)[C@@H](O[C@H]3[C@H](O)[C@@H](O)C(O)O[C@@H]3CO)O[C@@H]2CO)[C@H](O)[C@@H](O)[C@@H]1N[C@H]1C=C(CO)[C@@H](O)[C@H](O)[C@H]1O (some centres unmarked) [Acarbose, reference compound]
Reply | 82.19
